From: the kinase profiling compilation of Christmann-Franck et al. (2016)

Measured residual activity values are reported for all entries that follow.
Tested system: UniProt:Q14680
Sequence (Q14680 whole entry, looked up): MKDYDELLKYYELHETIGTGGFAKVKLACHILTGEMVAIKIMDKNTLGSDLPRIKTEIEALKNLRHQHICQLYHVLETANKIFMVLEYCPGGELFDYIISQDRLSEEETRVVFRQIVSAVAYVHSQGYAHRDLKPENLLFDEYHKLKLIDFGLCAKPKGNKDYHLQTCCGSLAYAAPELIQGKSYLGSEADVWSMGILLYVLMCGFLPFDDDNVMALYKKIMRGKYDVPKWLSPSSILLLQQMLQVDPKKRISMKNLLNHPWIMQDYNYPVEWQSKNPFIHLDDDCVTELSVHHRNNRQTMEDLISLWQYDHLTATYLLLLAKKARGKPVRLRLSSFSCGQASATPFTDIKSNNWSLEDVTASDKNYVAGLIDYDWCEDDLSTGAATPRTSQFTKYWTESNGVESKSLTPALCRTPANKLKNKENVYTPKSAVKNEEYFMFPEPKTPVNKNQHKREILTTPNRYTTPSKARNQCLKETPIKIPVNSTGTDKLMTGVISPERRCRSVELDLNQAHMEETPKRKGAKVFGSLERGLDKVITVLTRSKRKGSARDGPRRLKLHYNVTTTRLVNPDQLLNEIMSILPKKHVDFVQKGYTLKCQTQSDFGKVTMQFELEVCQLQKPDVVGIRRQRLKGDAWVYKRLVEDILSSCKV
Test description: radiometric filter-binding kinase assay
Condition parameters: compound 10.0 µM
The answer is to be given in %; state only the numeric part.

{"columns": ["Compound", "Units of measure", "residual activity"],
 "data": [
  ["NC(=O)c1cc(-c2ccnc(NC3CCCCC3)c2)nc(N2CCNCC2)c1", "%", 40],
  ["NC(=O)c1ccc(-c2ccc(Oc3cncc4sc(-c5nn[nH]n5)cc34)cc2)cc1", "%", 62]
]}

// residual activity lookup, key: C=CC(=O)N1CCC[C@@H](n2nc(-c3ccc(Oc4ccccc4)cc3)c3c(N)ncnc32)C1 56

Consider the compound O=C1Nc2nc(-c3c(O)cccc3OCC3CC3)cc(C3CCCNC3)c2CO1 (stereo not given) and give its measured residual activity. 58

Bench note: what residual activity did Cc1ccc(Sc2cnc(Nc3cccc(Br)n3)s2)cc1C(=O)N1CCN(C(=O)CN)CC1 show? 5
